Biological target: METTL3/14 (Homo sapiens (Human))
Assay: METTL3/14 methyltransferase biochemical assay (RapidFire mass spectrometry, METTL3_14 RFMS)
Field 'label' (enum: T / F). Set to T when IC50 is strictly under 20 nM; else F.

- substance.smiles: "O=C(NCc1cn2cc(CNCC3CCC3)ccc2n1)c1cccc2cncn12"
  label.class: "F"
- substance.smiles: "c1cc2cc(-c3cn(Cc4cn5cc(CNCC6CCC6)ccc5n4)cn3)cnc2[nH]1"
  label.class: "T"

Request: Consider the molecule `O=C(NCc1cn2cc(CNCC3CCC3)ccc2n1)c1cnc2[nH]ccc2c1` . Is its IC50 strictly less than 20 nM?
Result: T

Request: Determine if `c1cc(-c2cn(Cc3cn4cc(CN5CC6(CCC6)C5)ccc4n3)nn2)c2cncn2c1` shows IC50 strictly lower than 20 nM.
Result: T

###

Biological target: METTL3/14 (Homo sapiens (Human), UniProt Q86U44)
Sequence (Q86U44 whole entry): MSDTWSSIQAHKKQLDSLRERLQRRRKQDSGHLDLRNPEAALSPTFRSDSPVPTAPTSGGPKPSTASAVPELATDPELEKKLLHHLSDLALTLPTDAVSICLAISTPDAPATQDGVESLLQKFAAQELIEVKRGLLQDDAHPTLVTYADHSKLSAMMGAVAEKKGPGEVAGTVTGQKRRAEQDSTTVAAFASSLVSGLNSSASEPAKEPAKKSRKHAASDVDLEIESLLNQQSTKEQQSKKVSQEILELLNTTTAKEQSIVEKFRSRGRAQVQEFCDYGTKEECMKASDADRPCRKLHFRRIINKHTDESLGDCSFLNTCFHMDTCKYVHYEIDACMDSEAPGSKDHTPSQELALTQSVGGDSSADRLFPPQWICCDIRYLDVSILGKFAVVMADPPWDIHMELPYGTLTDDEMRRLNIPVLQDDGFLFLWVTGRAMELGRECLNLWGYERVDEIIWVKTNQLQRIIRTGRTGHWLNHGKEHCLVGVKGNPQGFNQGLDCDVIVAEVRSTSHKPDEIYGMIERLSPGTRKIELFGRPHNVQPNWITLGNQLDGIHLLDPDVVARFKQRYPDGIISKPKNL
Sequence (Q9HCE5 whole entry partner): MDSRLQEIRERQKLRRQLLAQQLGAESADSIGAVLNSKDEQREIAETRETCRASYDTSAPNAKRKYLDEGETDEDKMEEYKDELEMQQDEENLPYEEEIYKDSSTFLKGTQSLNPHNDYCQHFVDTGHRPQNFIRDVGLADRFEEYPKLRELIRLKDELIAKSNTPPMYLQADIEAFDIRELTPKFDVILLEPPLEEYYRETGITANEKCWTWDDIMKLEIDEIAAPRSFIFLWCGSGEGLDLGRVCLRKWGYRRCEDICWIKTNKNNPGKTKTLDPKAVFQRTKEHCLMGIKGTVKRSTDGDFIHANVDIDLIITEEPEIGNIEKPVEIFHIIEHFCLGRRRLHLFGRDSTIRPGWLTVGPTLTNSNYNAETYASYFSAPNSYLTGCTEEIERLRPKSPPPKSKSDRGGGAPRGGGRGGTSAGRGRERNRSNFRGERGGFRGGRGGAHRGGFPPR
Test: METTL3/14 methyltransferase biochemical assay (RapidFire mass spectrometry, METTL3_14 RFMS)
property.name: IC50 (nM)
Give just the numeric value; nM need not be written.

Some solved cases for reference:
- substance.smiles: "FC12CC(CNCc3ccc4nc(Cn5cc(-c6cncc(N7CCOCC7)c6)nn5)cn4c3)(C1)C2"
  unit.abbreviation: "nM"
  obs.value: 6
- substance.smiles: "O=C(NCc1cn2cc(CNCC3CCC3)ccc2n1)c1cnc2[nH]ccc2n1"
  unit.abbreviation: "nM"
  obs.value: 14.1

Request: # return recorded IC50 for entry `COc1cnc(C#N)c(-c2cn(Cc3cn4cc(CNCC5CCC5)ccc4n3)nn2)c1`
Result: 57

Request: Look up and state reported IC50 for `Cn1ccc2cc(C(=O)NCc3cn4cc(CNCC5CCC5)ccc4n3)cnc21`
Result: 1600

###

Molecular target: METTL3/14 (Homo sapiens (Human), UniProt Q86U44)
Assay: METTL3/14 methyltransferase biochemical assay (RapidFire mass spectrometry, METTL3_14 RFMS)
Measured IC50, listed per entry for reference.
Give a bare numeral; the unit nM is implied.

Past entries and their recorded results:
- compound: "COc1cc(-c2cn(Cc3cn4cc(CNCC56CC(F)(C5)C6)ccc4n3)nn2)c2cncn2c1 [Example 26]"
  IC50 (nM): 6.1
- compound: "COc1cc(-c2cn(Cc3cn4cc(CNCC5CCC5)ccc4n3)nn2)c2cncn2c1 [Example 22]"
  IC50 (nM): 6.1
- compound: "COc1cnc(C#N)c(-c2cn(Cc3cn4cc(CN5CCC6(CCC6)C5)ccc4n3)nn2)c1 [Example 40]"
  IC50 (nM): 76
- compound: "Cc1nc(C(=O)NCc2cn3cc(CNCC4CCCCC4)ccc3n2)cc(=O)n1C [Example 2]"
  IC50 (nM): 719
- compound: "N#Cc1ncc(F)cc1-c1cn(Cc2cn3cc(CNCC45CC(F)(C4)C5)ccc3n2)nn1 [Example 43]"
  IC50 (nM): 235
- compound: "O=C(NCc1cn2cc(CNCC3CCC3)ccc2n1)c1cnc2[nH]cnc2c1 [Example 13]"
  IC50 (nM): 1070
- compound: "COc1cnc(C#N)c(-c2cn(Cc3cn4cc(CNCC56CC(F)(C5)C6)ccc4n3)nn2)c1 [Example 41]"
  IC50 (nM): 16
- compound: "COc1cc(-c2cn(Cc3cn4cc(CNCC56CC(C5)C6)ccc4n3)nn2)c2cncn2c1 [Example 28]"
  IC50 (nM): 6.1

Request: Please list IC50 recorded for the compound O=C(NCc1cn2cc(CNCC3CCCCC3)ccc2n1)c1ccnc2[nH]ncc12 [Example 7]
Result: 1400

Request: Tell me its IC50 given Clc1cc(-c2cn(Cc3cn4cc(CNCC5CCC5)ccc4n3)nn2)c2cncn2c1 [Example 24] as the entry.
Result: 6.1

Request: Look up and report measured IC50 for this entry: COc1cnc(C(N)=O)c(-c2cn(Cc3cn4cc(CNCC56CC(F)(C5)C6)ccc4n3)nn2)c1 [Example 49]
Result: 85

Request: State its IC50 for this compound: COc1cnc(C#N)c(-c2cn(Cc3cn4cc(CNCC56CC(C5)C6)ccc4n3)nn2)c1 [Example 37]
Result: 11.2

Request: Give the value of IC50 reported for the following: c1ccc2c(-c3cn(Cc4cn5cc(CN(CC6CCC6)CC6CCC6)ccc5n4)nn3)cncc2c1 [Example 32]
Result: 1260

Request: Indicate the recorded IC50 value for this compound: O=C(NCc1cn2cc(CNCC3CCCCC3)ccc2n1)c1cnc2ccccc2n1 [Example 6]
Result: 151

Request: Give a short answer stating reported IC50 for O=C(NCc1cn2cc(CNCC3CC(F)(F)C3)ccc2n1)c1cnc2[nH]ccc2c1 [Example 15] .
Result: 27.3

Request: # return recorded IC50 for input O=C(NCc1cn2cc(CNCC3CCC3)ccc2n1)c1ccc2[nH]ccc2c1 [Example 17]
Result: 3820

Request: Return IC50 (reported value) for this compound: O=C(NCc1cn2cc(CNCC3CCC3)ccc2n1)c1cccn2cncc12 [Example 10]
Result: 36.5

###

Biological target: METTL3/14 (Homo sapiens (Human))
Test: METTL3/14 methyltransferase biochemical assay (RapidFire mass spectrometry, METTL3_14 RFMS)
Details: inhibition of RNA methyltransferase activity; 5 nM METTL3/14, 0.2 μM RNA substrate, 0.5 μM SAM; lower limit of the assay IC50=5 nM
property.name: pIC50
Friendly reminder that pIC50 comes from taking -log10 of the concentration in mol/L.

- molecule: "O=C(NCc1cn2cc(CNCC3CCCCC3)ccc2n1)c1cnc2ccccc2c1 [Example 8]"
  pIC50: 5.92

Here's the next entry for you.
Request: # return pIC50 of Cc1ccc2nc(CNC(=O)c3nccc4[nH]ncc34)cn2c1 [Reference Example 1] (system: METTL3/14 (Homo sapiens (Human)))
Result: 5.27

###

IC50 values by entry
Target: METTL3/14 (Homo sapiens (Human))
Assay: METTL3/14 methyltransferase biochemical assay (RapidFire mass spectrometry, METTL3_14 RFMS)

# example entries with known answers
- compound: "Cc1ncc2c(-c3cn(Cc4cn5cc(CNCC67CC(F)(C6)C7)ccc5n4)nn3)cccn12 [Example 36]"
  target.of.assay: "METTL3/14 (Homo sapiens (Human))"
  IC50: "105 nM"
- compound: "c1cc(-c2cn(Cc3cn4cc(CNCC5CCC5)ccc4n3)nn2)c2nncn2c1 [Example 27]"
  target.of.assay: "METTL3/14 (Homo sapiens (Human))"
  IC50: "236 nM"
- compound: "COc1cc(-c2cn(Cc3cn4cc(CN5CC6(CCC6)C5)ccc4n3)nn2)c2cncn2c1 [Example 30]"
  target.of.assay: "METTL3/14 (Homo sapiens (Human))"
  IC50: "6.1 nM"

Please find the next compound below.
Request: Return IC50 for the following compound: COc1ccncc1-c1cn(Cc2cn3cc(CNCC45CC(F)(C4)C5)ccc3n2)nn1 [Example 47]
Result: 13 nM

###

Molecular target: METTL3/14 (Homo sapiens (Human))
Experiment: METTL3/14 methyltransferase biochemical assay (RapidFire mass spectrometry, METTL3_14 RFMS)
Experimental: The enzymatic assay was established to determine IC50 values for inhibition of RNA methyltransferase activity. The enzyme used was full-length his-tagged METTL3 co-expressed with full length FLAG-tagged METTL14 in a baculovirus expression system. […] RNA methyltransferase activity was measured label free using the RapidFireTM mass spectrometry (RF/MS) platform. […]
property.name: IC50
In your response, the unit should come after the numeric value.

// known answers, use as guide
- substance.smiles: "c1cc(-c2cn(Cc3cn4cc(CNCC5CCC5)ccc4n3)nn2)c2cncn2c1"
  property.name: "IC50"
  obs.value: "6.1 nM"
- substance.smiles: "N#Cc1ncc(N2CCOCC2)cc1-c1cn(Cc2cn3cc(CNCC45CC(F)(C4)C5)ccc3n2)nn1"
  property.name: "IC50"
  obs.value: "6 nM"

Request: Fill in IC50 for record `Fc1ncn2cccc(-c3cn(Cc4cn5cc(CNCC6CCC6)ccc5n4)nn3)c12`
Result: 15.8 nM

Request: Tell me measured IC50 for `O=C(NCc1cn2cc(CNCC34CC(F)(C3)C4)ccc2n1)c1cc(=O)n2ccsc2n1` please.
Result: 6.1 nM

Request: // fetch IC50 given entry `N#Cc1ncc(F)cc1-c1cn(Cc2cn3cc(CN4CCC5(CCC5)C4)ccc3n2)nn1`
Result: 1180 nM

Request: For the compound `COc1cncc(C(=O)NCc2cn3cc(CNCC4CCC4)ccc3n2)c1` , give its measured IC50 value.
Result: 74 nM
